Where these numbers come from: patent US9926282B2

Each entry below carries its reported pIC50.
Biological target: ROCK1 (Homo sapiens (Human))
Assay: ROCK assay (LABCHIP peptide phosphorylation), ROCK1
Assay type: biochemical
Details: 5 μM ATP, 1.5 μM peptide substrate; read-out: ROCK1 IC50
pIC50: −log10 of the molar value.

Some solved cases for reference:
Cc1nc(N2CCCc3ccccc32)sc1C(=O)Nc1ccc(-c2n[nH]c(=O)c3ccccc23)cc1 ... 7.00 to 10.00
COc1ccc2c(C(=O)Nc3ccc(-c4n[nH]c(=O)c5ccccc45)cc3)cnn2c1 ... 7.00 to 10.00
O=C(Nc1ccc(-c2n[nH]c(=O)c3ccccc23)c(CO)c1)c1nn(CC2CCCO2)c2ccccc12 (stereo not shown) ... 4.30 to 6.00

Continue with the next compound.
*Q* Using the record for Cc1cc(NC(=O)c2nn(CCN(C)C)c3ccccc23)ccc1-c1n[nH]c(=O)c2ccccc12 , report its pIC50.
*A* 6.00 to 7.00

----------
Target: ROCK1 (Homo sapiens (Human), UniProt Q13464)
Sequence (Q13464 whole entry, species assumed): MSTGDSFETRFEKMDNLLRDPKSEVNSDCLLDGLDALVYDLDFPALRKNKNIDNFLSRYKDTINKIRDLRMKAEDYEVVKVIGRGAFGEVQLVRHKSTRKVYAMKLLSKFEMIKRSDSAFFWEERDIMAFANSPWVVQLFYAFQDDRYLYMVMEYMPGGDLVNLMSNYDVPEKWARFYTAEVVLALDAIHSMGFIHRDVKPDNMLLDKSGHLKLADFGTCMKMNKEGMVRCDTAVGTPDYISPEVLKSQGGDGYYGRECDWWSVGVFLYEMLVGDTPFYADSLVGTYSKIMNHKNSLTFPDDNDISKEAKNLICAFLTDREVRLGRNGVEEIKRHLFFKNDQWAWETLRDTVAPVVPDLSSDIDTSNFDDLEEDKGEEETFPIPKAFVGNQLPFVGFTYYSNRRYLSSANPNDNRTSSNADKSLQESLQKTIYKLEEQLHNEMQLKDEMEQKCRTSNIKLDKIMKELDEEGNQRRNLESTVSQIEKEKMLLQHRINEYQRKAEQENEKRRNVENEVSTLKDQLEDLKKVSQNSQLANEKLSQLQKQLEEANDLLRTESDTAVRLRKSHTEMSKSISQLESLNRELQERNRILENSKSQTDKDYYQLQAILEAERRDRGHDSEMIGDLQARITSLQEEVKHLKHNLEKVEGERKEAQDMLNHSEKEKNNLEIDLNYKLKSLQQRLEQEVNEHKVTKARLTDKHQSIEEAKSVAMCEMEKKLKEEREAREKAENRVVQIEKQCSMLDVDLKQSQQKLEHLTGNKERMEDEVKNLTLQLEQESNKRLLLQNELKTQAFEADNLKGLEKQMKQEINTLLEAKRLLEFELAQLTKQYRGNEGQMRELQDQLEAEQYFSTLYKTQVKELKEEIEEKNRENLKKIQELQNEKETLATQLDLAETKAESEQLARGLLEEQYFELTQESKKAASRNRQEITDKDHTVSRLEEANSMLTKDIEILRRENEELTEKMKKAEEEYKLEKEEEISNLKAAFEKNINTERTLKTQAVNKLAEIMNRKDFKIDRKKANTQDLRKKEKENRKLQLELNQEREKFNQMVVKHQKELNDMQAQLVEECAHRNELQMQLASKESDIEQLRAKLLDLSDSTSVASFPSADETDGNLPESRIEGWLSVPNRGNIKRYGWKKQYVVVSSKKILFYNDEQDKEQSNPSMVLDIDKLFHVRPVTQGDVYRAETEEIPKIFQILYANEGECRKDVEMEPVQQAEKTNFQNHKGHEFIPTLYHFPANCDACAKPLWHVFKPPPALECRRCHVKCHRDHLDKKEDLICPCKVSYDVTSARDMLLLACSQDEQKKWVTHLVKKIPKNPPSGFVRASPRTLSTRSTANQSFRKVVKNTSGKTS
Assay: ROCK assay (LABCHIP peptide phosphorylation), ROCK1
Type: biochemical
Conditions: 5 μM ATP, 1.5 μM peptide substrate; read-out: ROCK1 IC50
pIC50: −log10 of the molar value.
ASSAY_METRIC: pIC50

Some solved cases for reference:
Cc1cc(NC(=O)c2c3ccccc3nn2CCN(C)C)ccc1-c1n[nH]c(=O)c2ccccc12 ... 6.00 to 7.00
Cn1nc(C2CC2)cc1C(=O)Nc1ccc(-c2n[nH]c(=O)c3ccccc23)cc1 ... 7.00 to 10.00
COc1cc(NC(=O)c2nn(CC3CCOC3)c3ccccc23)ccc1-c1n[nH]c(=O)c2ccccc12 (stereo not shown) ... 6.00 to 7.00
COCCOc1ccc2c(C(=O)Nc3ccc(-c4n[nH]c(=O)c5ccccc45)cc3)cnn2c1 ... 7.00 to 10.00
CN1CCN(c2ccc(C(=O)Nc3ccc(-c4n[nH]c(=O)c5ccccc45)cc3)cc2)CC1 ... 6.00 to 7.00

*Q* Using the record for NC(=O)COc1ccc2c(c1)N(C(=O)Cc1ccc(-c3n[nH]c(=O)c4ccccc34)cc1)CC2 , report its pIC50.
*A* 7.00 to 10.00

*Q* Using the record for Cc1cc(NC(=O)c2nn(CC(C)(C)O)c3ccccc23)ccc1-c1n[nH]c(=O)c2ccccc12 , report its pIC50.
*A* 7.00 to 10.00

*Q* Using the record for CN(C)c1cccc(C(=O)Nc2ccc(-c3c[nH]c(=O)c4ccccc34)cc2)c1 , report its pIC50.
*A* 7.00 to 10.00

*Q* Using the record for Cc1nc2ccccn2c1C(=O)Nc1ccc(-c2n[nH]c(=O)c3ccccc23)cc1 , report its pIC50.
*A* 7.00 to 10.00

*Q* Using the record for O=C(Nc1ccc(-c2n[nH]c(=O)c3ccccc23)cc1)c1nn(CC2CCOC2)c2ccccc12 (stereo not shown) , report its pIC50.
*A* 7.00 to 10.00

*Q* Using the record for O=C(Nc1ccc(-c2n[nH]c(=O)c3ccccc23)c(Cl)c1)c1cnc2ccccn12 , report its pIC50.
*A* 7.00 to 10.00

----------
Biological target: ROCK1 (Homo sapiens (Human), UniProt Q13464)
Assay: ROCK assay (LABCHIP peptide phosphorylation), ROCK1
Format: biochemical
Settings: 5 μM ATP, 1.5 μM peptide substrate; read-out: ROCK1 IC50
ASSAY_METRIC: IC50

Some solved cases for reference:
O=C(Nc1ccc(-c2n[nH]c(=O)c3ccccc23)cc1)c1nn(Cc2ccccc2)c2ccccc12 ... 0.1 to 100 nM
Cc1cc(NC(=O)c2onc3ccccc23)ccc1-c1n[nH]c(=O)c2ccccc12 ... 101 to 1000 nM
CC(C)(O)Cn1nc(C(=O)Nc2ccc(-c3n[nH]c(=O)c4ccccc34)c(CO)c2)c2ccccc21 ... 1000 to 50000 nM
O=C(Nc1ccc(-c2n[nH]c(=O)c3ccccc23)cc1)c1c2ccccc2nn1CC1COC1 ... 1000 to 50000 nM
Cc1nn(-c2cccc(Cl)c2Cl)nc1C(=O)Nc1ccc(-c2n[nH]c(=O)c3ccccc23)cc1 ... 101 to 1000 nM

*Q* Using the record for O=C(Nc1ccc(-c2n[nH]c(=O)c3ccccc23)cc1)c1cnn2cccnc12 , report its IC50.
*A* 101 to 1000 nM

*Q* Using the record for O=C(Cc1ccc(-c2n[nH]c(=O)c3ccccc23)cc1)N1CCc2ccccc21 , report its IC50.
*A* 101 to 1000 nM

*Q* Using the record for O=C(Nc1ccc(-c2n[nH]c(=O)c3ccccc23)cc1O)c1nn(CC2CCOC2)c2ccccc12 (stereo not shown) , report its IC50.
*A* 0.1 to 100 nM

*Q* Using the record for O=C(Nc1ccc(-c2n[nH]c(=O)c3ccccc23)cc1)c1nn(CC2CCOC2)c2cc(F)ccc12 (stereo not shown) , report its IC50.
*A* 0.1 to 100 nM

*Q* Using the record for COC[C@@H]1CCCN1C(=O)Cc1ccc(-c2n[nH]c(=O)c3ccccc23)cc1 , report its IC50.
*A* 1000 to 50000 nM

----------
Target: ROCK1 (Homo sapiens (Human), UniProt Q13464)
Experiment: ROCK assay (LABCHIP peptide phosphorylation), ROCK1
Assay type: biochemical
Conditions: 5 μM ATP, 1.5 μM peptide substrate; read-out: ROCK1 IC50
pIC50: −log10 of the molar value.
ASSAY_METRIC: pIC50

O=C(Nc1ccc(-c2n[nH]c(=O)c3ccccc23)cc1)c1nn(Cc2ccccn2)c2ccccc12 [Example 160] ... 7.00 to 10.00

*Q* Using the record for O=C(Cc1ccc(-c2n[nH]c(=O)c3ccccc23)cc1)Nc1ccc2c(c1)OCCO2 [Example 24] , report its pIC50.
*A* 6.00 to 7.00

----------
Each entry below carries its reported IC50.
Target: ROCK2 (Homo sapiens (Human), UniProt O75116)
Sequence (O75116 whole entry, species assumed): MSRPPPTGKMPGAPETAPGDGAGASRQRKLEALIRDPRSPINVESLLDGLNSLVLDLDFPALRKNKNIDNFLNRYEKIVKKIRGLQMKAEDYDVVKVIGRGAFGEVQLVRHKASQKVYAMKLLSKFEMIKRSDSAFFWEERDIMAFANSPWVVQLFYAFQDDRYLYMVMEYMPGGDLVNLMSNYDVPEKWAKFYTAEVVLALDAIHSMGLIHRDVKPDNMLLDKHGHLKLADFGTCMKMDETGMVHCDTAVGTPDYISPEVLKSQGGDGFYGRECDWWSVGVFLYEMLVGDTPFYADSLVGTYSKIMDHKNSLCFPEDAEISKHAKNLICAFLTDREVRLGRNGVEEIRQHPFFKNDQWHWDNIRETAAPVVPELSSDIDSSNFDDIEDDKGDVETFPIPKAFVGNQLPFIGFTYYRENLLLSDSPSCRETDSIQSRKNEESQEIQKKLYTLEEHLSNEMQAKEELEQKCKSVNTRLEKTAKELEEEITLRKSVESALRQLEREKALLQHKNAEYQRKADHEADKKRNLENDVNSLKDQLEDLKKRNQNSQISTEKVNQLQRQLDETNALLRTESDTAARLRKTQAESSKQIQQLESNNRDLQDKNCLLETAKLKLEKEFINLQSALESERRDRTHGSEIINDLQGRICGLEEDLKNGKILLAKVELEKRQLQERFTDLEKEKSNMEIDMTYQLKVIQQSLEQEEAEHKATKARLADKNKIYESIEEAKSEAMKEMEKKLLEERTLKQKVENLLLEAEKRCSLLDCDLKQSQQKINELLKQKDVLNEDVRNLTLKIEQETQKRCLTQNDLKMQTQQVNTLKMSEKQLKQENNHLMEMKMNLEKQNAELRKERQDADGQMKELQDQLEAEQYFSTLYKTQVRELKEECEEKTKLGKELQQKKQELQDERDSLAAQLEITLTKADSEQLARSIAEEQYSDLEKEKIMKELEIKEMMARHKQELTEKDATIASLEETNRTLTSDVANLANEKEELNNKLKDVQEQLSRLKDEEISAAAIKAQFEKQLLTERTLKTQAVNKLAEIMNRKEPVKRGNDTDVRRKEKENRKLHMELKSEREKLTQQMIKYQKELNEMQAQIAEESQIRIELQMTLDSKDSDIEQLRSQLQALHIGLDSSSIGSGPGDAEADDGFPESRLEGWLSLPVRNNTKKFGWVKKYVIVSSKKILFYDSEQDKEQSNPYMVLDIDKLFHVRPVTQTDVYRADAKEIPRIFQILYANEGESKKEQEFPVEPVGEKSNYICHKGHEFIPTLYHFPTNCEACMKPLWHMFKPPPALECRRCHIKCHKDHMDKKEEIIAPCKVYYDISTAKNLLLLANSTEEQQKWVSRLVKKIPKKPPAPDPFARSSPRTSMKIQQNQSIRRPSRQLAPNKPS
Assay: ROCK assay (LABCHIP peptide phosphorylation), ROCK2
Assay type: biochemical
Conditions: 5 μM ATP, 1.5 μM peptide substrate

Some solved cases for reference:
CC(C)OC(=O)N1CCC(Cn2nc(C(=O)Nc3ccc(-c4n[nH]c(=O)c5ccccc45)cc3)c3ccccc32)CC1 [Example 349] ... 0.1 to 100 nM
O=C(Nc1ccc(-c2n[nH]c(=O)c3ccccc23)cc1)c1nn(CC2CCOCC2)c2ccccc12 [Example 150] ... 0.1 to 100 nM

*Q* Using the record for O=C(Oc1ccc(-c2n[nH]c(=O)c3ccccc23)cc1)N1CCC(c2ccccc2)C1 (stereo not shown) [Example 69] , report its IC50.
*A* 101 to 1000 nM

*Q* Using the record for O=C(Cc1ccc(-c2n[nH]c(=O)c3ccccc23)cc1)Nc1ccccc1 [Example 20] , report its IC50.
*A* 101 to 1000 nM

*Q* Using the record for O=C(Nc1ccc(-c2n[nH]c(=O)c3ccccc23)cc1)c1nn(Cc2ccccc2)c2ccccc12 [Example 99] , report its IC50.
*A* 0.1 to 100 nM

*Q* Using the record for COc1ccc2c(c1)N(C(=O)Nc1ccc(-c3c[nH]c(=O)c4cc(OC)c(OC)cc34)cc1)CC2 [Example 257] , report its IC50.
*A* 0.1 to 100 nM

*Q* Using the record for COc1ccc2c(c1)CN(C(=O)Oc1ccc(-c3n[nH]c(=O)c4ccccc34)cc1)C2 [Example 70] , report its IC50.
*A* 0.1 to 100 nM

----------
Molecular target: ROCK2 (Homo sapiens (Human), UniProt O75116)
Experiment: ROCK assay (LABCHIP peptide phosphorylation), ROCK2
Type: biochemical
Settings: 5 μM ATP, 1.5 μM peptide substrate
pIC50: −log10 of the molar value.
ASSAY_METRIC: pIC50

*Q* Using the record for Cc1cc(NC(=O)c2cc(C(C)(C)C)n(C)n2)ccc1-c1n[nH]c(=O)c2ccccc12 [Example 395] , report its pIC50.
*A* 7.00 to 10.00

*Q* Using the record for O=C(Cc1ccc(-c2n[nH]c(=O)c3ccccc23)cc1)Nc1nc2ccccc2o1 [Example 10] , report its pIC50.
*A* 7.00 to 10.00

*Q* Using the record for CN(C)c1ccc(C(=O)Nc2ccc3c(c2)N(C(=O)Cc2ccc(-c4n[nH]c(=O)c5ccccc45)cc2)CC3)cc1 [Example 300] , report its pIC50.
*A* 7.00 to 10.00

*Q* Using the record for O=C(Cc1ccc(-c2n[nH]c(=O)c3ccccc23)cc1)N1CCc2ccc(O[C@@H]3CCOC3)cc21 [Example 274] , report its pIC50.
*A* 7.00 to 10.00

*Q* Using the record for COCCOc1ccn2ncc(C(=O)Nc3ccc(-c4n[nH]c(=O)c5ccccc45)cc3)c2c1 [Example 184] , report its pIC50.
*A* 7.00 to 10.00

----------
Biological target: ROCK1 (Homo sapiens (Human), UniProt Q13464)
Assay: ROCK assay (LABCHIP peptide phosphorylation), ROCK1
Format: biochemical
Settings: 5 μM ATP, 1.5 μM peptide substrate; read-out: ROCK1 IC50
ASSAY_METRIC: IC50

*Q* Using the record for COc1ccc2c(c1)N(C(=O)Nc1ccc(-c3c[nH]c(=O)c4ccccc34)cc1)CC2 [Example 80] , report its IC50.
*A* 0.1 to 100 nM

*Q* Using the record for O=C(Nc1ccc(-c2n[nH]c(=O)c3ccccc23)cc1)c1cnn(-c2ccccc2)c1C(F)(F)F [Example 190] , report its IC50.
*A* 0.1 to 100 nM
